src = patent US10011607B2

For each record, write down the corresponding EC50.
Biological target: human mGlu4 receptor (Homo sapiens (Human))
Sequence (Q14833 33-912): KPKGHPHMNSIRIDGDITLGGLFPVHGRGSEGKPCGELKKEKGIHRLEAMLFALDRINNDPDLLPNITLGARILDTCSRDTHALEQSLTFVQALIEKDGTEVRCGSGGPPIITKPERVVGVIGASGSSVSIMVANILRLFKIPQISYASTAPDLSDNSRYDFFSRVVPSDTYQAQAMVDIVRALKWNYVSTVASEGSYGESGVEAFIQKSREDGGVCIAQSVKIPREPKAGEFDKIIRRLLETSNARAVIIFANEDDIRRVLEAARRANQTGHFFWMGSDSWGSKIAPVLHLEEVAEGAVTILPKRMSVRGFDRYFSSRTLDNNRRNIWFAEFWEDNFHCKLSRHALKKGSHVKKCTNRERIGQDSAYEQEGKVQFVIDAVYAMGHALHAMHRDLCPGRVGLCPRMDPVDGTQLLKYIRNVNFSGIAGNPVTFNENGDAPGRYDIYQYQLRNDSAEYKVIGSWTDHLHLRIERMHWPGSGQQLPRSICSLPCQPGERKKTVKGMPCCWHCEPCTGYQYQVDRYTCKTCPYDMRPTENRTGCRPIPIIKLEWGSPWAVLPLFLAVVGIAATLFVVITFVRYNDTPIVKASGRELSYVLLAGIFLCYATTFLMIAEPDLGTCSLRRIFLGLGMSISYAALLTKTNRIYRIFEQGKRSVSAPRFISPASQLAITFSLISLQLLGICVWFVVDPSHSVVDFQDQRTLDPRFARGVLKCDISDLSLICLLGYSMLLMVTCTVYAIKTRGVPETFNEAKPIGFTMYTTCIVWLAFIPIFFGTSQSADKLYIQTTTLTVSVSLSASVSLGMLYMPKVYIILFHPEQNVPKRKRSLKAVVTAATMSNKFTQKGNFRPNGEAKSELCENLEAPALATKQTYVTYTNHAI
Assay: Ca2+ mobilization in vitro assay on recombinant human mGlu4 expressed in HEK293 cells (PAM)
Type: cell-based
Settings: HEK293 cells, human mGlu4, in presence of EC20 of L-AP4; read-out: EC50 (nM) mGlu4PAM
Answers are plain numbers, in nM.

Use these answered entries as a reference point.
| compound | EC50, nM |
| --- | --- |
| Cn1ccc(N2CCN3C(=O)N(c4c(F)cc(C#Cc5ccccc5)cc4F)C(=O)CC3(C)C2=O)n1 (racemic) [Example 62] | 149 |
| COCC12CC(=O)N(c3c(F)cc(C#Cc4ccccc4)cc3F)C(=O)N1CCN(c1cccnc1)C2=O (racemic) [Example 102] | 129 |
| Cc1cc(N2CCN3C(=O)N(c4c(F)cc(C#Cc5ccccc5)cc4F)C(=O)CC3(C)C2=O)n(C)n1 (racemic) [Example 66] | 85 |

Please give EC50, item by item, for the list that follows.
1. Cn1cc(N2CCN3C(=O)N(c4c(F)cc(C#Cc5ccccc5)cc4Cl)C(=O)CC3(C)C2=O)cn1 (racemic) [Example 77]
2. CC12CC(=O)N(c3c(F)cc(C#Cc4ccccc4)cc3F)C(=O)N1CCN(c1cnccn1)C2=O (racemic) [Example 32]

1. 104
2. 88

Provide the reported EC50 of each entry below, same order.
1. C[C@@]12CC(=O)N(c3c(F)cc(C#Cc4ccccc4)cc3F)C(=O)N1CCN(c1cn[nH]c1)C2=O [Example 71]
2. Cc1csc(N2CCN3C(=O)N(c4c(F)cc(C#Cc5ccccc5)cc4F)C(=O)CC3(C)C2=O)n1 (racemic) [Example 54]
3. Cn1cc(N2CCN3C(=O)N(c4c(F)cc(C#Cc5ccccc5)cc4F)C(=O)C[C@@]3(C)C2=O)ccc1=O [Example 24]
4. Cc1cccc(N2CCN3C(=O)N(c4c(F)cc(C#Cc5ccccc5)cc4F)C(=O)CC3(C)C2=O)n1 (racemic) [Example 10]
5. Cc1cn(C)c(N2CCN3C(=O)N(c4c(F)cc(C#Cc5ccccc5)cc4F)C(=O)CC3(C)C2=O)n1 (racemic) [Example 59]
6. CC12CC(=O)N(c3c(F)cc(C#Cc4ccccc4)cc3F)C(=O)N1CCN(c1ccncc1)C2=O (racemic) [Example 8]
7. COc1cnc(N2CCN3C(=O)N(c4c(F)cc(C#Cc5ccccc5)cc4F)C(=O)C[C@@]3(C)C2=O)cn1 [Example 44]
8. Cn1nccc1CCN1CCN2C(=O)N(c3c(F)cc(C#Cc4ccccc4)cc3F)C(=O)C[C@@]2(C)C1=O [Example 100]

101
48
128
163
104
129
123
219

Consider the following items and state reported EC50 for each.
1. CC12CC(=O)N(c3c(F)cc(C#Cc4ccccc4)cc3F)C(=O)N1CCN(Cc1cccnc1)C2=O (racemic) [Example 93]
2. Cc1ccccc1CN1CCN2C(=O)N(c3c(F)cc(C#Cc4ccccc4)cc3F)C(=O)CC2(C)C1=O (racemic) [Example 85]
3. CCOC(=O)CCCN1CCN2C(=O)N(c3c(F)cc(C#Cc4ccccc4)cc3F)C(=O)C[C@@]2(C)C1=O [Example 82]
4. Cc1cncnc1N1CCN2C(=O)N(c3c(F)cc(C#Cc4ccccc4)cc3F)C(=O)C[C@@]2(C)C1=O [Example 36]

217
205
201
86

For each listed entry, give its EC50.
1. Cn1nccc1N1CCN2C(=O)N(c3c(F)cc(C#Cc4ccccc4)cc3F)C(=O)C[C@@]2(C)C1=O [Example 65]
2. Cn1cc(CN2CCN3C(=O)N(c4c(F)cc(C#Cc5ccccc5)cc4F)C(=O)CC3(C)C2=O)cn1 (racemic) [Example 96]
3. COc1ccc(N2CCN3C(=O)N(c4c(F)cc(C#Cc5ccccc5)cc4F)C(=O)C[C@@]3(C)C2=O)cn1 [Example 23]
4. CC12CC(=O)N(c3c(F)cc(C#Cc4ccccc4)cc3F)C(=O)N1CCN(Cc1ccccn1)C2=O (racemic) [Example 92]
5. CC12CC(=O)N(c3c(F)cc(C#Cc4ccccc4)cc3Cl)C(=O)N1CCN(c1cccnc1)C2=O (racemic) [Example 74]
6. CC12CC(=O)N(c3c(F)cc(C#Cc4ccccc4)cc3Cl)C(=O)N1CCN(c1ccncc1)C2=O (racemic) [Example 75]

1. 92
2. 214
3. 61
4. 198
5. 102
6. 210

---

What Emax was measured for each of the following?
Molecular target: human mGlu4 receptor (Homo sapiens (Human))
Test: Ca2+ mobilization in vitro assay on recombinant human mGlu4 expressed in HEK293 cells (PAM)
Format: cell-based
Conditions: HEK293; maximal response in % of maximal stimulatory effect of saturating L-AP4; read-out: Eff. (%)
Please answer using the number first and the unit second.

Give Emax for all compounds that follow.
1. Cc1nc(N2CCN3C(=O)N(c4c(F)cc(C#Cc5ccccc5)cc4F)C(=O)CC3(C)C2=O)cn1C (racemic)
2. C[C@@]12CC(=O)N(c3c(F)cc(C#Cc4ccccc4)cc3F)C(=O)N1CCN(Cc1cccc(F)c1)C2=O
3. COCC12CC(=O)N(c3c(F)cc(C#Cc4ccccc4)cc3F)C(=O)N1CCN(c1cnn(C)c1)C2=O (racemic)
4. CC12CC(=O)N(c3c(F)cc(C#Cc4ccccc4)cc3F)C(=O)N1CCN(c1ccc(Cl)nc1)C2=O (racemic)
5. CC12CC(=O)N(c3c(F)cc(C#Cc4ccccc4)cc3Cl)C(=O)N1CCN(c1ccncc1)C2=O (racemic)

137%
109%
148%
101%
128%

---

Molecular target: UniProt Q14833
Assay: Ca2+ mobilization in vitro assay on recombinant human mGlu4 expressed in HEK293 cells (PAM)
Type: cell-based
Conditions: HEK293 cells, human mGlu4, in presence of EC20 of L-AP4; read-out: EC50 (nM) mGlu4PAM
# strict inequality: EC50 < 80 nM yields y, everything else yields n

Check out these entries, answers already filled in.
| molecule | class.name |
| --- | --- |
| C[C@@]12CC(=O)N(c3c(F)cc(C#Cc4ccccc4)cc3F)C(=O)N1CCN(CC(F)(F)F)C2=O | n |
| Cc1cc(N2CCN3C(=O)N(c4c(F)cc(C#Cc5ccccc5)cc4F)C(=O)CC3(C)C2=O)ccn1 (racemic) | n |
| Cc1cc(N2CCN3C(=O)N(c4c(F)cc(C#Cc5ccccc5)cc4F)C(=O)C[C@@]3(C)C2=O)ncn1 | n |
| O=C1C2CC(=O)N(c3c(F)cc(C#Cc4ccccc4)cc3F)C(=O)N2CCN1c1cccnc1 (racemic) | n |
| C[C@@]12CC(=O)N(c3c(F)cc(C#Cc4ccccc4)cc3F)C(=O)N1CCN(c1cnccn1)C2=O | y |

Would you kindly verify if EC50 of `Cn1nccc1CN1CCN2C(=O)N(c3c(F)cc(C#Cc4ccccc4)cc3F)C(=O)C[C@@]2(C)C1=O` is strictly less than 80 nM? y

Param item: `C[C@@]12CC(=O)N(c3c(F)cc(C#Cc4ccccc4F)cc3F)C(=O)N1CCN(c1ccncn1)C2=O` y

---

Target: human mGlu4 receptor (Homo sapiens (Human))
Experiment: Ca2+ mobilization in vitro assay on recombinant human mGlu4 expressed in HEK293 cells (PAM)
Assay type: cell-based
Conditions: HEK293 cells, human mGlu4, in presence of EC20 of L-AP4; read-out: EC50 (nM) mGlu4PAM
Consider the cut-off 100 nM. If the recorded EC50 is strictly smaller, the label is Yes; if not, the label is No.

Problem: For the molecule `Cn1cnc(N2CCN3C(=O)N(c4c(F)cc(C#Cc5ccccc5)cc4F)C(=O)C[C@@]3(C)C2=O)n1` , is EC50 under 100 nM? No

Now this one: CC12CC(=O)N(c3c(F)cc(C#Cc4ccccc4)cc3F)C(=O)N1CCN(Cc1ccncc1)C2=O (racemic) No

Similarly, `C[C@@]12CC(=O)N(c3c(F)cc(C#Cc4ccccc4)cc3F)C(=O)N1CCN(c1cnc(OCc3ccccc3)cn1)C2=O` ? No

What do you get for `C[C@@]12CC(=O)N(c3c(F)cc(C#Cc4ccccc4)cc3F)C(=O)N1CCN(c1ccncc1)C2=O` ? Yes

Can you handle Cc1cnc(N2CCN3C(=O)N(c4c(F)cc(C#Cc5ccccc5)cc4F)C(=O)CC3(C)C2=O)s1 (racemic) next? Yes

Next record, please: `CC(C)Oc1ncc(N2CCN3C(=O)N(c4c(F)cc(C#Cc5ccccc5)cc4F)C(=O)C[C@@]3(C)C2=O)cn1` No

Now consider `CCn1cc(N2CCN3C(=O)N(c4c(F)cc(C#Cc5ccccc5)cc4F)C(=O)C[C@@]3(C)C2=O)cn1` . No

---

Molecular target: human mGlu4 receptor (Homo sapiens (Human))
Assay: Ca2+ mobilization in vitro assay on recombinant human mGlu4 expressed in HEK293 cells (PAM)
Type: cell-based
Conditions: HEK293 cells, human mGlu4, in presence of EC20 of L-AP4; read-out: EC50 (nM) mGlu4PAM
Please respond with reported EC50 for every item in the list.
Give bare numbers, in nM.

Quick batch: EC50 for everything below.
1. Cc1nc(N2CCN3C(=O)N(c4c(F)cc(C#Cc5ccccc5)cc4F)C(=O)C[C@@]3(C)C2=O)cn1CC(F)(F)F
2. C[C@@]12CC(=O)N(c3c(F)cc(C#Cc4ccccc4)cc3F)C(=O)N1CCN(c1ccncn1)C2=O
3. CC12CC(=O)N(c3c(F)cc(C#Cc4ccccc4)cc3F)C(=O)N1CCN(Cc1cccc(Cl)c1)C2=O (racemic)
4. Cc1nccc(N2CCN3C(=O)N(c4c(F)cc(C#Cc5ccccc5)cc4F)C(=O)CC3(C)C2=O)n1 (racemic)
5. CC12CC(=O)N(c3c(F)cc(C#Cc4ccccc4)cc3F)C(=O)N1CCN(c1nc(C(F)(F)F)cs1)C2=O (racemic)

272
39
73
113
166

For each of the molecules below, state EC50.
1. C[C@@]12CC(=O)N(c3c(F)cc(C#Cc4ccccc4)cc3F)C(=O)N1CCN(c1ccnnc1)C2=O
2. CC12CC(=O)N(c3c(F)cc(C#Cc4ccccc4)cc3F)C(=O)N1CCN(Cc1ccccc1Cl)C2=O (racemic)

1: 74; 2: 87
